Read-out: urokinase plasminogen activator (uPA), PLAU (gene 5328)
Experiment: BSK_KF3CT_uPA: BioMAP Diversity Plus: KF3CT Assay for urokinase plasminogen activator (uPA) Biomarker Activity (AID 2283075)
Settings: primary human keratinocytes with fibroblasts; actives raise or lower the signal
Calls of active or inactive are those of the source. The calls were made as follows: active = hit-call score of the fitted dose curve at least 0.9, where 1 is the maximum; inactive = score below 0.9.
Entry note: the call must match one of True for active, False for inactive

query: Hi team, can someone confirm the assay call for `COc1cccc(C(=O)NN(C(=O)c2cc(C)cc(C)c2)C(C)(C)C)c1C` ?
result: False

query: Hey, what did the test say about `CCCCN(CC)c1c([N+](=O)[O-])cc(C(F)(F)F)cc1[N+](=O)[O-]` ?
result: False

query: Returns: the outcome recorded for CC(Oc1cccc(Cl)c1)C(=O)O (centres undefined) in this assay.
result: False

query: Status in this test for `CCCCOC(=O)[C@@H](C)Oc1ccc(Oc2ccc(C#N)cc2F)cc1` ?
result: False

query: Just curious, what result did `Nc1c(Cl)cc([N+](=O)[O-])cc1Cl` get here?
result: False

query: Status in this test for `CNC(=O)Oc1cccc2c1OC(C)(C)O2` ?
result: False

query: Outcome logged for `CCC(CC)Nc1c([N+](=O)[O-])cc(C)c(C)c1[N+](=O)[O-]` in this assay:
result: False

query: Lab log entry: `CCCOCC(=Nc1ccc(Cl)cc1C(F)(F)F)n1ccnc1` — outcome as called in the assay?
result: True

query: Short answer needed: outcome of this test for `CC[C@H](C)[C@H]1O[C@]2(C=C[C@@H]1C)C[C@@H]1C[C@@H](C/C=C(\C)[C@@H](O[C@H]3C[C@H](OC)[C@@H](O[C@H]4C[C@H](OC)[C@@H](NC)[C@H](C)O4)[C@H](C)O3)[C@@H](C)/C=C/C=C3\CO[C@@H]4[C@H](O)C(C)=C[C@@H](C(=O)O1)[C@]34O)O2` ?
result: True

query: So what was the verdict on `CSc1nnc(C(C)(C)C)c(=O)n1N` in this test?
result: False

query: Test call, this compound: C#CCC1=C(C)C(OC(=O)C2C(C=C(C)C)C2(C)C)CC1=O (centres undefined)
result: False

query: Could you kindly confirm the outcome this assay logged for CCOC(=O)CC(SP(=O)(OC)OC)C(=O)OCC (centres undefined) ?
result: False

query: Name the outcome recorded for `CCCCOC(=O)c1ccccc1C(=O)O` in the assay.
result: False

query: Lab log entry: `CN(C)C(=O)Nc1cccc(C(F)(F)F)c1` — outcome as called in the assay?
result: False

query: // param item: `C[N+]1(C)CCCCC1` ; yields the recorded call
result: False

query: Give the logged outcome of this assay for the following compound: CC(COc1ccc(Oc2ccccc2)cc1)Oc1ccccn1 (centres undefined)
result: False

query: Please share the test call associated with `COc1cc(OC)nc(Sc2cccc(Cl)c2C(=O)O)n1` .
result: False

query: Short answer needed: outcome of this test for `CNC(=O)ON=C(C)SC` ?
result: False

query: Please share the test call associated with `C=C(C)[C@H]1Cc2c(ccc3c2O[C@@H]2COc4cc(OC)c(OC)cc4[C@@H]2C3=O)O1` .
result: False

query: Dear colleague, could you share the recorded outcome for `CC(C)[C@H](C(=O)O[C@H](C#N)c1cccc(Oc2ccccc2)c1)c1ccc(Cl)cc1` when you have a moment?
result: False

query: For `C[Si](Cn1cncn1)(c1ccc(F)cc1)c1ccc(F)cc1` , what call appears in the results of this test?
result: False

query: Per the assay record, what outcome was assigned to COP(=O)(NC(C)=O)SC (centres undefined) ?
result: False

query: What did the test return for `CCCCSP(=O)(SCCCC)SCCCC` ?
result: False

query: Test call, this compound: `O=c1ccc(=O)[nH][nH]1`
result: False

Data provenance: PubChem BioAssay (EPA / NIEHS)
